Listing of entries alongside the reported GI50.
# System: MOLT-4
# assayInfo: NCI tumour cell line growth inhibition, 48 h
The source made the active and inactive calls. Cut-off read from the data, not from the text of the source: active = GI50 up to about 1.1 µM and inactive = higher.

A selection of reference data follows.
C=C(Cl)C(Cl)(CBr)CCC(Br)C(C)(C)Br (centres undefined) | 6.9 µM (inactive)
C[N+]1(C)CCC(C#N)(c2ccccc2)CC1 | > 100 µM (inactive)
COc1ccc(CNNC(=O)c2cc[n+]([BH2-]C#N)cc2)cc1OC | > 100 µM (inactive)
Cc1ccc(C(=O)N/N=C(\N=N\c2ccc([N+](=O)[O-])cc2)c2ccc(N(CCC#N)CCC#N)cc2C)cc1 | 57.3 µM (inactive)
C=C1C(=O)OC2CC3(CO3)C3C(O)C(O)CC3(C)CC12 (centres undefined) | 17.8 µM (inactive)
Sc1nn2c(COc3cccc(OCc4nnc5sc(S)nn45)c3)nnc2s1 | 2.09 µM (inactive)
BrC1=CN2C[n+]3cc(Br)c4ccccc4c3N=C2c2ccccc21 | 11 µM (inactive)
O=[N+]([O-])c1ccc2c(c1)C1=NN(c3ccccc3)C(c3ccccc3Br)C1CCC2 (centres undefined) | 6.97 µM (inactive)

Would you kindly look at the next entry?
Requested read-out GI50, target or system MOLT-4, entry `O=S(=O)(c1ccccc1)[C@@H]1[C@H]2C=C[C@](CS)(O2)[C@H]1S(=O)(=O)c1ccccc1`
16.5 µM (inactive)

* * *

Listing of entries alongside the reported GI50.
# System: U-251
# assayInfo: NCI tumour cell line growth inhibition, 48 h
Calls of active or inactive are those of the source. Cut-off read from the data, not from the text of the source: active = GI50 up to about 1.1 µM and inactive = higher.

C=C(C)[C@@H]1CC[C@]2(C)CC[C@]3(C)[C@H](CC[C@@H]4[C@@]5(C)CC[C@H](OC(=O)c6ccccc6)C(C)(C)[C@@H]5CC[C@]43C)[C@@H]12 | > 100 µM (inactive)
O=C([C@H](O)[C@@H](O)c1ccc(Br)cc1)C12CC3CC(CC(C3)C1)C2 | 7.18 µM (inactive)

Would you kindly look at the next entry?
Form field: reported GI50 of `CSc1ccc(/C=C2\N=C(c3ccccc3)N(c3nc4cc(C)c(C)cc4s3)C2=O)cc1`
19.2 µM (inactive)

* * *

Quick record of GI50 values for HCT-15.

A selection of reference data follows.
Cc1ccc(S(=O)(=O)NC(=O)NCC(N)=O)cc1 | > 100 µM
CCOC(=O)c1cc(-c2ccc(OC)cc2)c([N+](=O)[O-])[nH]1 | > 10 µM

Requested read-out GI50, target or system HCT-15, entry `O=C(Nc1cnc(O)nc1O)C(Cl)Cl`
> 100 µM

Requested read-out GI50, target or system HCT-15, entry C=C1C[C@]23CC[C@@H]4C(CO)(CO)CC(=O)C[C@]4(C)[C@@H]2C(O)C[C@H]1C3 (stereo not given in full)
> 100 µM

Requested read-out GI50, target or system HCT-15, entry CC1=CC(O)(c2ccc(-c3ccccc3Cl)cc2)OC1=O (stereo not given)
> 100 µM

* * *

# System: RPMI-8226
# assayInfo: NCI tumour cell line growth inhibition, 48 h
Active and inactive are the calls of the source. Rule as the data show it: active = GI50 up to about 1.1 µM and inactive = higher.
A correct response names exactly one class from active, inactive

Cc1ccccc1NC(=O)C(=O)C(C1OC(=O)c2ccccc21)[N+](=O)[O-] (stereo not given) | inactive

Just curious, what result did `COc1cccc2c(NNc3ccccc3)c3ccc([N+](=O)[O-])cc3nc12` get here?
inactive

Just curious, what result did `CCCCN(Cc1ccccc1)/C(=N/C#N)N(Cc1ccccc1)Cc1ccccc1` get here?
inactive

Just curious, what result did `CCOC(=O)NC(=O)c1cn(CCCOC(=O)NCCCCCCNC(=O)OCCCn2cc(C(=O)NC(=O)OCC)c(=O)[nH]c2=O)c(=O)[nH]c1=O` get here?
inactive

Just curious, what result did `O=[N+]([O-])c1ccc(-n2nnc(C3=NCCCN3)c2-c2ccc(Cl)cc2)cc1` get here?
inactive

Just curious, what result did `COc1ccccc1NC(=S)N/N=C(/c1ccccc1)c1ccccn1` get here?
active

Just curious, what result did CC(=O)OC1=CC2(OC(C)=O)CC(C)(C)C1C1C(=O)C=CC(=O)C12 (stereo not given) get here?
inactive

Just curious, what result did OCC1NC(CO)C(O)C1O (stereo not given) get here?
inactive

Just curious, what result did `COc1ccc(/N=C(Nc2ccc(OC)cc2)/C(=N/c2ccc(OC)cc2)Nc2ccc(OC)cc2)cc1` get here?
inactive

Just curious, what result did `O=C1N[C@@H](O)[C@@H]2ON=C(c3ccccc3)[C@H]12` get here?
inactive

Just curious, what result did `COc1ccc(-n2c(=O)[nH]n(C(C)=O)c2=O)cc1` get here?
inactive

Just curious, what result did O=C(Cc1ccccc1)NN1C(=O)C(Cl)C1c1cc(Br)cc(Br)c1O (stereo not given) get here?
inactive

Just curious, what result did COC(CC1(OC)OC(=O)C=C1N)OC (stereo not given) get here?
inactive

Just curious, what result did COC(=O)/C=C1\CCC(C)(C(=O)NS(=O)(=O)c2ccc(C)cc2)C1(C)C (stereo not given) get here?
inactive

Just curious, what result did `C=C(C)[C@@]1(OC(=O)c2cc([N+](=O)[O-])cc([N+](=O)[O-])c2)C[C@@H]2CCCC[C@@H]21` get here?
inactive
